# Assay System: CDK12 complexed with Cyclin K (Homo sapiens, UniProt Q9NYV4)
# Construct: GST (N)
# Sequence (Q9NYV4 whole entry): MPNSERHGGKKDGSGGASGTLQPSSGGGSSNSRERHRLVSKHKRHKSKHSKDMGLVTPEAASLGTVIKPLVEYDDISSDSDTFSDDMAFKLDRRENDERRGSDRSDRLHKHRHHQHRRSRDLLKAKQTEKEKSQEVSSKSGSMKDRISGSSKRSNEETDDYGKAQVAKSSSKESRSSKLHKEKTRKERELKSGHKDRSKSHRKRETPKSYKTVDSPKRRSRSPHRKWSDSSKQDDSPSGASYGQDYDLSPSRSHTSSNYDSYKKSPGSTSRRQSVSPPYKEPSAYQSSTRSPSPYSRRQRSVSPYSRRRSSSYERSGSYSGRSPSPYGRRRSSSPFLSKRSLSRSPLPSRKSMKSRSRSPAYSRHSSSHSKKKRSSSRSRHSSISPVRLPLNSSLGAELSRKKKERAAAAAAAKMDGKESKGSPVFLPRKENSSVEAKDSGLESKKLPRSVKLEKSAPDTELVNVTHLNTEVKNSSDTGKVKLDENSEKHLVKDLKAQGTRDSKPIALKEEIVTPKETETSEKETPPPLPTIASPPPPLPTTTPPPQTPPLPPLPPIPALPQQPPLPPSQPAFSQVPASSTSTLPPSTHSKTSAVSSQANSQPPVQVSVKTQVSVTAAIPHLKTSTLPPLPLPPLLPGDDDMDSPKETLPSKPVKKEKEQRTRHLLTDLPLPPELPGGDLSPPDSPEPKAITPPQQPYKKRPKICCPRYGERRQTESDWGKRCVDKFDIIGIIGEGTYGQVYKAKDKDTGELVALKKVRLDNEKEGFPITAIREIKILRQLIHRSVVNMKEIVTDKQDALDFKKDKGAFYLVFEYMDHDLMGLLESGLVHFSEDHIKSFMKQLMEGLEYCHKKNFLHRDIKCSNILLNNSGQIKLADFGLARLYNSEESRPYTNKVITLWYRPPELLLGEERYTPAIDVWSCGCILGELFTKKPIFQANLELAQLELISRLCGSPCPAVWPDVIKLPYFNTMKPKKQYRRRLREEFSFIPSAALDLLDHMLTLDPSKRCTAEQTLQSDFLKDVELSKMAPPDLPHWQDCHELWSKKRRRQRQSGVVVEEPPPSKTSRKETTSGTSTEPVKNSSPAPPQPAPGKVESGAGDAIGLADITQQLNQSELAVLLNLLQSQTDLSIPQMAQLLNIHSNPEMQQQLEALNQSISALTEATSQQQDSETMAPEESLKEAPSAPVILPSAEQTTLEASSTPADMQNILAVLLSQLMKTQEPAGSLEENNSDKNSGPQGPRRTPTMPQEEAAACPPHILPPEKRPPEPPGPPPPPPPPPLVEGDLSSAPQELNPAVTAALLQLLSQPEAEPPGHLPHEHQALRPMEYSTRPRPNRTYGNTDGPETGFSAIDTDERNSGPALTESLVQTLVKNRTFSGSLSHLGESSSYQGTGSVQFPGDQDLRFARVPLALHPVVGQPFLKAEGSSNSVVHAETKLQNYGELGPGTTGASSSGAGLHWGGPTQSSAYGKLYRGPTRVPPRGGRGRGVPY
# Sequence (O75909 whole entry partner): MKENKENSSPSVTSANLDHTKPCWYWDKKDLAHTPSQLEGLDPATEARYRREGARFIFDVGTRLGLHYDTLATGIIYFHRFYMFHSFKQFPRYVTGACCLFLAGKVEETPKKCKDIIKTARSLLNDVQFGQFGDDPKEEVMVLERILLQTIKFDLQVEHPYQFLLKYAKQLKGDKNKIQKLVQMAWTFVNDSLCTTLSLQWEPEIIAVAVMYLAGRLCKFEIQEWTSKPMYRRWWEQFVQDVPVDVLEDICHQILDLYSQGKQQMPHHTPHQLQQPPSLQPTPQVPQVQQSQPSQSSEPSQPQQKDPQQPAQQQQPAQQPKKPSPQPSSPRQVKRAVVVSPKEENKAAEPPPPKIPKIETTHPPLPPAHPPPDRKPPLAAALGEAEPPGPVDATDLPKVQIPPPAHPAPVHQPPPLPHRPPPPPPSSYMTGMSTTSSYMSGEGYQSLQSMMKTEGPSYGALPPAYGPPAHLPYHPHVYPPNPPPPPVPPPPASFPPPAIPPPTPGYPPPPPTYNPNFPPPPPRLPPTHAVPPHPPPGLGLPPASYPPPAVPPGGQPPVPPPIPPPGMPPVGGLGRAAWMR
# Assay Procedure: CDK Enzymatic Assays (HTRF, LANCE Ultra kinase assay), Example A1
# Format: biochemical
# Particulars: enzyme pre-incubated with compounds for 60 minutes prior to addition of ATP (1 mM final) and Ulight-peptide; reaction 60-90 minutes at room temperature
pIC50: −log10 of the molar value.
We begin with a simple list: items and their reported pIC50.

Please look at C=CC(=O)Nc1ccc2c(c1)C(=O)N([C@H]1CCC[C@@H](Nc3ncc(C#N)c(OC)n3)C1)C2 [Example 83] and tell me its recorded pIC50 on CDK12 complexed with Cyclin K (Homo sapiens, UniProt Q9NYV4).
> 7.30

Supply pIC50 measured with CDK12 complexed with Cyclin K (Homo sapiens, UniProt Q9NYV4) for COc1nc(N[C@@H]2CCC[C@H](N3Cc4ccc(NC(=O)CBr)cc4C3=O)C2)ncc1C#N [Example 58] .
> 7.30

With CDK12 complexed with Cyclin K (Homo sapiens, UniProt Q9NYV4) as the test system, provide measured pIC50 for this compound: C=CC(=O)Nc1cccc2c(N3CCC[C@@H](Nc4ncc(C#N)c(OC)n4)C3)nn(C)c12 [Example 35]
> 7.30

***
Fetch value of pIC50 on CDK12 complexed with Cyclin K (Homo sapiens, UniProt Q9NYV4) for C=CC(=O)Nc1nc2cccc(N3CCC[C@@H](Nc4ncc(C#N)c(OC)n4)C3)n2n1 [Example 22] .
> 7.30

Fill in: pIC50 on CDK12 complexed with Cyclin K (Homo sapiens, UniProt Q9NYV4), entry C=CC(=O)Nc1cc2nc(N3CCC(F)(F)[C@@H](Nc4ncc(C(F)(F)F)cn4)C3)n(C)c2cc1C [Example 97]
> 7.30

System CDK12 complexed with Cyclin K (Homo sapiens, UniProt Q9NYV4). Read-out pIC50. Item C=C(Cl)C(=O)Nc1ccc2c(c1)nc([C@H]1CCC[C@@H](Nc3ncc(C#N)c(OC)n3)C1)n2C [Example 80] . Report value.
> 7.30

Report value only: pIC50, CDK12 complexed with Cyclin K (Homo sapiens, UniProt Q9NYV4), C=CC(=O)Nc1ccc2c(c1)nc([C@H]1CCC[C@@H](Nc3ncc(C(F)(F)F)cn3)C1)n2C [Example 72]
> 7.30

---

Each record here notes measured IC50.
# Assay System: CDK12 complexed with Cyclin K (Homo sapiens, UniProt Q9NYV4)
# Construct: GST (N)
# Assay Procedure: CDK Enzymatic Assays (HTRF, LANCE Ultra kinase assay), Example A1
# Assay type: biochemical
# Particulars: enzyme pre-incubated with compounds for 60 minutes prior to addition of ATP (1 mM final) and Ulight-peptide; reaction 60-90 minutes at room temperature

Worked set:
Consider the compound C=CC(=O)Nc1ccc2c(c1)nc([C@H]1CCC[C@@H](Nc3ncc(C#N)c(OC)n3)C1)n2CCO [Example 47] . State its measured IC50.
< 50 nM

Recall and state the measured IC50 for COc1nc(N[C@@H]2CCCN(c3cc4c(cn3)c(NC(=O)CCl)nn4C)C2)ncc1C#N [Example 33] .
< 50 nM

For the compound C=CC(=O)Nc1ccc2c(c1)nc(N1C[C@H](F)C[C@@H](Nc3ncc(C#N)cn3)C1)n2C [Example 89] , give its measured IC50 value.
< 50 nM

Please supply the value of reported IC50 for the item C=CC(=O)Nc1c(C)nc2c(N3CCC[C@@H](Nc4ncc(C#N)c(OC)n4)C3)nccn12 [Example 14]
< 50 nM

Find the measured IC50 of COc1nc(N[C@@H]2CCC[C@H](c3nc4cc(NC(=O)CCl)ccc4n3C)C2)ncc1C#N [Example 50] and report it.
< 50 nM

Further cases:
Name the recorded IC50 of the compound listed here: C/C=C/C(=O)Nc1ccc2c(c1)C(=O)N([C@H]1CCC[C@@H](Nc3ncc(C#N)c(OC)n3)C1)C2 [Example 64]
> 500 nM

Look up and state reported IC50 for C=CC(=O)Nc1ccc2sc(N3CC[C@@H](Nc4ncc(C#N)c(OC)n4)C3)nc2c1 [Example 41]
< 50 nM

Hello, please tell me recorded IC50 for this one: C=CC(=O)Nc1ccc2c(c1)C(=O)N([C@H]1CCC[C@@H](Nc3ncc(C=C)cn3)C1)C2 [Example 7]
< 50 nM

# return recorded IC50 for input C=CC(=O)Nc1ccc2c(c1)C(=O)N([C@H]1CCC[C@@H](Nc3ncc(C)c(C(F)(F)F)n3)C1)C2 [Example 5]
< 50 nM

Identify measured IC50 associated with C=CC(=O)Nc1ccc2c(c1)C(=O)N([C@H]1CCC[C@@H](Nc3ncc(Br)c(C(F)(F)F)n3)C1)C2 [Example 75]
< 50 nM

Answer with the recorded IC50 for the compound listed here: C=CC(=O)Nc1nn(C)c2cc(N3CC[C@@H](Nc4ncc(C#N)c(OC)n4)C3)ccc12 [Example 21]
50 to 500 nM

For C=CC(=O)Nc1ccc2c(c1)cc(N1CCC[C@@H](Nc3ncc(C#N)c(OC)n3)C1)n2C [Example 39] , write its IC50.
> 500 nM

Tell me measured IC50 for C=CC(=O)Nc1ccc2c(c1)C(=O)N([C@H]1CCC[C@@H](Nc3ncc(C(F)(F)F)c(NC)n3)C1)C2 [Example 78] please.
< 50 nM

Indicate the recorded IC50 value for this compound: C=CC(=O)Nc1ccc2c(c1)C(=O)N([C@H]1CCC[C@@H](Nc3ncc(-c4cnn(C)c4)cn3)C1)C2 [Example 8]
> 500 nM

Return the recorded IC50 value; entry: C=CC(=O)Nc1ccc2c(c1)nc(N1CC[C@H](F)[C@@H](Nc3ncc(C(F)(F)F)cn3)C1)n2C [Example 91]
< 50 nM
